Recorded values, source patent EP2402322A1.

# ASSAYED SYSTEM: human orexin-1 receptor (Homo sapiens, UniProt O43613)
# Construct: expressed in transfected cells; host or cells: CHO cells (G418 selection)
# Sequence (O43613 whole entry): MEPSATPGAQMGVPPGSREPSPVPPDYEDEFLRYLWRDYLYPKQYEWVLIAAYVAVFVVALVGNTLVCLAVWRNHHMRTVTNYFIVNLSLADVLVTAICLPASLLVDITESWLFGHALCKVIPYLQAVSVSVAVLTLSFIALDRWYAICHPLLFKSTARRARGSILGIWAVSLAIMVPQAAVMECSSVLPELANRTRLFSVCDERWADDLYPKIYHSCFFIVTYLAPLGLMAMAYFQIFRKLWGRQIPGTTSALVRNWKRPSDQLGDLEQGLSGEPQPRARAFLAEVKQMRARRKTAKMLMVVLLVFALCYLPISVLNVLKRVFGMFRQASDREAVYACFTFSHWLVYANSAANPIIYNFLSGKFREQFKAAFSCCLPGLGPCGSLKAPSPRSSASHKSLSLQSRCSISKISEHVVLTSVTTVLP
# ASSAY: Intracellular calcium measurements (FLIPR), CHO cells, 3 nM orexin-A as agonist
# Assay type: cell-based
ENDPOINT: pIC50
One number for each entry, as −log10 of the molar value.

Q) Query for human orexin-1 receptor (Homo sapiens, UniProt O43613): what pIC50 does the record show for COc1ccc(C[C@H]2c3cc(OC)c(OC)cc3CCN2[C@@H](C(=O)NC(C)C)c2ccccc2)cc1OC ?
A) 7.57

###

# ASSAYED SYSTEM: human orexin-2 receptor (Homo sapiens)
# Sequence (O43614 whole entry): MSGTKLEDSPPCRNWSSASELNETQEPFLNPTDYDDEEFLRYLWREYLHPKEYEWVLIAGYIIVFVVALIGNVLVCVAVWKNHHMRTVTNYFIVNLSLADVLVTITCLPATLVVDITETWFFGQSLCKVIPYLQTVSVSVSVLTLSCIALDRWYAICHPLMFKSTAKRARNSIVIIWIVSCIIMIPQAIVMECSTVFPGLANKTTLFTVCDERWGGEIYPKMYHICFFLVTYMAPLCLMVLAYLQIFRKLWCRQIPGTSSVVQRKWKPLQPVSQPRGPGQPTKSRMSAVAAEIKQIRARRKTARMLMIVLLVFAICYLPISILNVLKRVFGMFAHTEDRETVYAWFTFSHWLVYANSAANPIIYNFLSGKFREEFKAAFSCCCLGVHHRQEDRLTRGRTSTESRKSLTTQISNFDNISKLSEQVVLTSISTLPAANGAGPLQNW
# ASSAY: Intracellular calcium measurements (FLIPR), CHO cells, 3 nM orexin-A as agonist
# MEASUREMENT SETUP: geometric mean; antagonism of 3 nM orexin-A
pIC50: −log10 of the molar value.
ENDPOINT: pIC50

Q) pIC50 of CCCCNC(=O)[C@@H](c1ccccc1)N1CCc2cc(OC)c(OC)cc2[C@@H]1Cc1ccc(OC)c(OC)c1 [Reference Compound 1, reference compound] on human orexin-2 receptor (Homo sapiens)?
A) < 6.52

###

Please respond with reported concentration at 3 h for every item in the list.
# ASSAY: Measurement of brain and systemic concentration after oral administration
# Assay type: in vivo, male wistar rats
# MEASUREMENT SETUP: rat, brain; 3 h after oral administration (100 mg/kg), n = 3, male wistar rats, 100% PEG 400; read-out: concentration in brain [B]
# Experimental: The compounds are formulated in 100% PEG 400. Samples are collected in the same animal at the same time point (+/- 5 min). Blood is sampled from the vena cava caudalis into containers with EDTA as anticoagulant and centrifuged to yield plasma. Brain is sampled after cardiac perfusion of 10 mL NaCl 0.9% and homogenized into one volume of cold phosphate buffer (pH 7.4). All samples are extracted with MeOH and analyzed by LC-MS/MS. Concentrations are determined with the help of calibration curves.
Answers are plain numbers, in ng/g.

[[record]]
compound = "CCCCNC(=O)[C@@H](c1ccccc1)N1CCc2cc(OC)c(OC)cc2[C@@H]1Cc1ccc(OC)c(OC)c1 [Reference Compound 1, reference compound]"
value_reported = 530


Q) Entry COc1ccc(C[C@H]2c3cc(OC)c(OC)cc3CCN2[C@@H](C(=O)NC(C)C)c2ccccc2)cc1OC : reported concentration at 3 h = ?
A) 880
